System: HCT-116 cell line
Assay: Inhibition of cell growth, tetrazolium salt (MTT) assay
Assay type: cell-based
Conditions: 0.25 μM compound; HCT-116; Table 3
# HCT-116 % Inhibition at 0.25 μM per record follows
Response body: numeric value in %, unit text excluded.

The cases that follow already have their HCT-116 % Inhibition at 0.25 μM on record.
COc1ccc(C)cc1S(=O)(=O)N1CCC(Nc2nc(N)c(C(=O)c3c(F)cccc3F)s2)CC1 | 24
CN(C)S(=O)(=O)N1CCC(Nc2nc(N)c(C(=O)c3c(F)cccc3F)s2)CC1 | 23
Nc1nc(NC2CCN(S(=O)(=O)c3cccc4cccnc34)CC2)sc1C(=O)c1c(F)cccc1F | 23
Nc1nc(NC2CCN(S(=O)(=O)c3ccc(Oc4ccc(I)cc4)cc3)CC2)sc1C(=O)c1c(F)cccc1F | 26
CS(=O)(=O)CS(=O)(=O)N1CCC(Nc2nc(N)c(C(=O)c3c(F)cccc3F)s2)CC1 | 27

What the record says about Nc1nc(NC2CCN(S(=O)(=O)c3ccc(Sc4ccncc4)cc3)CC2)sc1C(=O)c1c(F)cccc1F : HCT-116 % Inhibition at 0.25 μM is 22

What the record says about Cc1noc(C)c1S(=O)(=O)N1CCC(Nc2nc(N)c(C(=O)c3c(F)cccc3F)s2)CC1 : HCT-116 % Inhibition at 0.25 μM is 21

====

Biological target: human CDK4 and genetically truncated (1-264) cyclin D3 (Homo sapiens, UniProt P11802)
Sequence (P11802 whole entry, the tested form may be a part): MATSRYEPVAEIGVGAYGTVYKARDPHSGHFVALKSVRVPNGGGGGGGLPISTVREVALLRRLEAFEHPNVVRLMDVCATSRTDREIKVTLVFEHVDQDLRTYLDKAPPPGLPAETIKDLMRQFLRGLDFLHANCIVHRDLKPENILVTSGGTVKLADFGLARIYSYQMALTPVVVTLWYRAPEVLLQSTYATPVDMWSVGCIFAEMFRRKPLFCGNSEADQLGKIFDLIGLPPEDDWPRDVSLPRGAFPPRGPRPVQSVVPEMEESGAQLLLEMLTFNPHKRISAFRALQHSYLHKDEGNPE
Sequence (P30281 1-264 partner): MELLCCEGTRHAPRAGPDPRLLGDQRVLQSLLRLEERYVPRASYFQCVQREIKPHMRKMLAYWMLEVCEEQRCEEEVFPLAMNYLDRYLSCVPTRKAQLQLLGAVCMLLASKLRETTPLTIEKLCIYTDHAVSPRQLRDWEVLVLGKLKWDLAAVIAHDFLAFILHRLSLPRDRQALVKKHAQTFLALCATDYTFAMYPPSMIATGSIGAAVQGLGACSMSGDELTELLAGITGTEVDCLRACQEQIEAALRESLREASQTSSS
Experiment: Inhibition of CDK4/Cyclin D Retinoblastoma Kinase Activity
Format: biochemical
Details: at 0.03 μM
// classify(record): look up CDK4 % Inhibition at 0.03 μM in ranges c1 (below 20%), c2 (20% to below 40%), c3 (40% or more)

Nc1nc(NC2CCN(C(=O)C34CC5CC(CC(C5)C3)C4)CC2)sc1C(=O)c1c(F)cccc1F [Example R54] | c2

Please indicate the class for Nc1nc(NC2CCN(C(=O)C(c3ccccc3)c3ccccc3)CC2)sc1C(=O)c1c(F)cccc1F [Example R1] based on its CDK4 % Inhibition at 0.03 μM.
c1

Please indicate the class for Nc1nc(NC2CCN(C(=O)c3c(F)cc(F)cc3F)CC2)sc1C(=O)c1c(F)cccc1F [Example R53] based on its CDK4 % Inhibition at 0.03 μM.
c2

Please indicate the class for Nc1nc(NC2CCN(C(=O)CC3C=CCC3)CC2)sc1C(=O)c1c(F)cccc1F (stereo not shown) [Example R98] based on its CDK4 % Inhibition at 0.03 μM.
c1

Please indicate the class for Nc1nc(NC2CCN(C(=O)c3ccc(Cl)nc3)CC2)sc1C(=O)c1c(F)cccc1F [Example R20] based on its CDK4 % Inhibition at 0.03 μM.
c3

Please indicate the class for CC(C)S(=O)(=O)c1csc(C(=O)N2CCC(Nc3nc(N)c(C(=O)c4c(F)cccc4F)s3)CC2)c1 [Example R63] based on its CDK4 % Inhibition at 0.03 μM.
c1

Please indicate the class for Nc1nc(NC2CCN(C(=O)c3cccnc3Sc3ccccc3)CC2)sc1C(=O)c1c(F)cccc1F [Example R41] based on its CDK4 % Inhibition at 0.03 μM.
c2

====

Molecular target: CDK2/Cyclin A (Homo sapiens, UniProt P24941)
Experiment: Inhibition of CDK2/Cyclin A Retinoblastoma Kinase Activity
Type: biochemical
Settings: 0.03 μM compound; Table 2
# CDK2 % Inhibition At 0.03 μM per record follows
Give your result as the value with the unit written after it.

What the record says about Nc1nc(NC2CCN(C(=O)Nc3ccc([N+](=O)[O-])cc3)CC2)sc1C(=O)c1c(F)cccc1F : CDK2 % Inhibition At 0.03 μM is 23%

What the record says about COC(=O)c1ccccc1NC(=O)N1CCC(Nc2nc(N)c(C(=O)c3c(F)cccc3F)s2)CC1 : CDK2 % Inhibition At 0.03 μM is 32%

What the record says about COc1cc(NC(=O)N2CCC(Nc3nc(N)c(C(=O)c4c(F)cccc4F)s3)CC2)cc(OC)c1OC : CDK2 % Inhibition At 0.03 μM is 22%

What the record says about CCOC(=O)C(Cc1ccccc1)NC(=O)N1CCC(Nc2nc(N)c(C(=O)c3c(F)cccc3F)s2)CC1 (stereo not shown) : CDK2 % Inhibition At 0.03 μM is 25%

What the record says about CCOC(=O)C(C)NC(=O)N1CCC(Nc2nc(N)c(C(=O)c3c(F)cccc3F)s2)CC1 (stereo not shown) : CDK2 % Inhibition At 0.03 μM is 24%

What the record says about Nc1nc(NC2CCN(C(=O)NCCc3ccccc3)CC2)sc1C(=O)c1c(F)cccc1F : CDK2 % Inhibition At 0.03 μM is 28%

What the record says about Nc1nc(NC2CCN(C(=O)Nc3ccccc3F)CC2)sc1C(=O)c1c(F)cccc1F : CDK2 % Inhibition At 0.03 μM is 35%

What the record says about Nc1nc(NC2CCN(C(=O)NCCc3cccs3)CC2)sc1C(=O)c1c(F)cccc1F : CDK2 % Inhibition At 0.03 μM is 22%

What the record says about Nc1nc(NC2CCN(C(=O)Nc3ccc4ccccc4c3)CC2)sc1C(=O)c1c(F)cccc1F : CDK2 % Inhibition At 0.03 μM is 34%

What the record says about CC(=O)c1cccc(NC(=O)N2CCC(Nc3nc(N)c(C(=O)c4c(F)cccc4F)s3)CC2)c1 : CDK2 % Inhibition At 0.03 μM is 35%

What the record says about Nc1nc(NC2CCN(C(=O)NC(=O)c3ccccc3)CC2)sc1C(=O)c1c(F)cccc1F : CDK2 % Inhibition At 0.03 μM is 33%

What the record says about COc1ccc(NC(=O)N2CCC(Nc3nc(N)c(C(=O)c4c(F)cccc4F)s3)CC2)c(OC)c1 : CDK2 % Inhibition At 0.03 μM is 37%

What the record says about COC(=O)[C@H](COC(C)(C)C)NC(=O)N1CCC(Nc2nc(N)c(C(=O)c3c(F)cccc3F)s2)CC1 : CDK2 % Inhibition At 0.03 μM is 32%

What the record says about CCCCCCNC(=O)N1CCC(Nc2nc(N)c(C(=O)c3c(F)cccc3F)s2)CC1 : CDK2 % Inhibition At 0.03 μM is 34%
